Below is a list of entries, each paired with its recorded TGI value.
Test system: SNB-19 CNS
Test: NCI tumour cell line growth inhibition, 48 h
quantity.name: TGI

[[record]]
compound = "CCCc1cc(=O)oc2c(C(=O)CC(C)C)c(O)c(CC=C(C)C)c(O)c12"
result = "> 50 µM"

[[record]]
compound = "CCOC(=O)/C(C(=S)NC)=C(/N)N1CCCC1"
result = "> 100 µM"

[[record]]
compound = "Cc1ccnc(NS(=O)(=O)c2ccc(NC(=O)c3ccc4nc5ccccc5c(Nc5ccc(S(=O)(=O)Nc6nccc(C)n6)cc5)c4c3)cc2)n1"
result = "> 100 µM"

[[record]]
compound = "CN(C)c1cccc(-c2cc(=O)c3ccccc3[nH]2)c1"
result = "> 100 µM"

[[record]]
compound = "NCCCNCCSSCc1ccccc1CSSCCNCCCN"
result = "> 100 µM"

[[record]]
compound = "C=CCn1c2ccccc2c2c(C)c3cnccc3c(C)c21"
result = "> 78.2 µM"

[[record]]
compound = "COc1c(OC(C)=O)cc2c(OC(C)=O)c1CC(C)CC(OC)C(O)C(C)/C=C(\\C)C(OC(N)=O)C(OC)/C=C\\C=C(/C)C(=O)N2 (stereo unspecified)"
result = "> 100 µM"

[[record]]
compound = "N#CS/C(C(Cl)=C(Cl)Cl)=C(/Cl)[N+](=O)[O-]"
result = "49.4 µM"

[[record]]
compound = "CN(Cc1cnc2nc(N)nc(N)c2n1)c1ccc(C(=O)NC(CCS(=O)(=O)O)C(=O)O)cc1 (stereo unspecified)"
result = "> 100 µM"

[[record]]
compound = "COc1ccc(/C=C/C(=O)c2sc(N)nc2C)cc1"
result = "> 100 µM"

[[record]]
compound = "O=C(Nc1ccc(Cl)cc1)c1cc(S(=O)(=O)Nc2n[nH]c(=O)[nH]2)c(SSc2cc(Cl)c(C(=O)Nc3ccc(Cl)cc3)cc2S(=O)(=O)Nc2n[nH]c(=O)[nH]2)cc1Cl"
result = "> 100 µM"

[[record]]
compound = "CCN1CCN(CCOc2ccc(CNc3ccc4nc(CCC5CCCCC5)[nH]c4c3)cc2)CC1"
result = "13 µM"

[[record]]
compound = "O=C(NCCCN1CCN(CCCNC(=O)c2cnc3ccccc3n2)CC1)c1cnc2ccccc2n1"
result = "> 100 µM"

[[record]]
compound = "ON=C1CCCCC(=NO)CCCC1"
result = "> 100 µM"

[[record]]
compound = "COCCc1c(C)c(C#N)c2n(C)c3ccccc3n2c1=O"
result = "> 10 µM"

[[record]]
compound = "Cc1csc2c(P(=O)(OC(C)C)OC(C)C)c(-c3ccccc3)cn12"
result = "28.4 µM"

[[record]]
compound = "CCN(CC)CCn1ncc2ccc3c(c(=O)c4cccnc4n3CCN(CC)CC)c21"
result = "9.97 µM"

[[record]]
compound = "Cc1cccc(CN(C)c2ccc(CO)c(Cl)c2)c1"
result = "> 100 µM"

[[record]]
compound = "CS(C)(=O)=N/C=C\\C(=O)C(Cl)(Cl)Cl"
result = "> 100 µM"

[[record]]
compound = "COc1ccc2nc(-c3ccc(OC(=O)N(C)C)cc3)cn2c1"
result = "> 100 µM"

[[record]]
compound = "C=C1CC(OC(C)=O)/C=C(/C)CCC(C(C)(C)O)CC1O (stereo unspecified)"
result = "> 100 µM"

